- Tested on: NCI/ADR-RES
- experimental-protocol: NCI tumour cell line growth inhibition, 48 h
Calls of active or inactive are those of the source. No stated cut-off is given here; in the data, active = GI50 up to about 1.1 µM and inactive = higher.
Listed next: entries and their corresponding GI50.

compound	GI50
CCC(C)c1c(Cl)nc(Cl)nc1Cl (stereo not drawn)	24.2 µM (inactive)
N#Cc1c(-c2ccccc2)c(C#N)c(=S)n(C2OC(CO)C(O)C(O)C2O)c1O (stereo not drawn)	> 100 µM (inactive)

Q. I am curious: what GI50 value has been reported for C=C1C(NC)CCC23CC24CCC2(C)C(C(C)=O)C(O)CC2(C)C4CCC13 (stereo not drawn) ?
A. > 100 µM (inactive)

Q. GI50 lookup needed for COC1OC(Cn2c(C)nc(Br)c2Br)C(O)C(O)C1O (stereo not drawn) , thanks.
A. > 100 µM (inactive)

Q. Need GI50, item COC1C=C(NCC2(CO)CCC2)N=C(N)N1 (stereo not drawn)
A. > 100 µM (inactive)

Q. For CCn1cc(C(c2ccc(Cl)cc2)n2ccnc2)c2cc(Br)ccc21 (stereo not drawn) , what is its reported GI50?
A. 12.6 µM (inactive)

Q. Please look up its GI50: N#CCCC1C(C#N)C2CC1C1C3C=CC(C3)C21 (stereo not drawn)
A. > 100 µM (inactive)

Q. Item under review: Cc1ccc2nc3sc(=O)sc3nc2c1 . Reported GI50?
A. 14.8 µM (inactive)

====

- System: SR
- experimental-protocol: NCI tumour cell line growth inhibition, 48 h
Active and inactive are the calls of the source. Cut-off read from the data, not from the text of the source: active = GI50 up to about 1.1 µM and inactive = higher.
endpoint: GI50

Answered cases to consult:
compound	endpoint	endpoint-result
S=c1nc(Nc2ccc(Br)cc2)c2c3c(sc2[nH]1)CN(N1CCc2c(sc4[nH]c(=S)nc(Nc5ccc(Br)cc5)c24)C1)CC3	GI50	27.5 µM (inactive)
CNC(=O)N(CCC#N)CCCN(C(=O)N(C)C)c1ccccc1	GI50	14.5 µM (inactive)
CC1OC(CC2C=CCc3c(O)c4c(c(O)c32)C(=O)c2ccccc2C4=O)CC(NC(=O)C(F)(F)F)C1O (stereo not given)	GI50	3.7 µM (inactive)
c1csc(-c2ccc(-c3cccs3)c3nsnc23)c1	GI50	6.47 µM (inactive)
O=C1CC(O)c2c(Cl)sc(Cl)c21 (stereo not given)	GI50	2.71 µM (inactive)

Continue with the compound presented below.
Q. For CCCOC(=O)c1cc(O)c(O)c(O)c1 [PROPYL GALLATE] , what is its reported GI50?
A. > 100 µM (inactive)

====

- System: T47D
- experimental-protocol: NCI tumour cell line growth inhibition, 48 h
Activity calls are given as the source filed them. Cut-off read from the data, not from the text of the source: active = GI50 up to about 1.1 µM and inactive = higher.
// one of Yes = active, No = inactive, no free text

Previously resolved entries follow.
compound	assigned-category
COC(COC(N)=O)C1=C(N2CC2)C(=O)C(C)=C(N2CC2)C1=O (stereo not drawn)	Yes
O=C(O)c1c(-c2nccc3ccccc23)[nH]c(-c2ccccc2)c1S(=O)(=O)O	No

Q. Name the outcome recorded for CC(C)C(OC(=O)c1ccc(NCc2cc(O)ccc2O)cc1)C(C)C in the assay.
A. Yes

====

List of GI50 values.
- Tested on: UO-31
- experimental-protocol: NCI tumour cell line growth inhibition, 48 h
Active and inactive are the calls of the source. Cut-off read from the data, not from the text of the source: active = GI50 up to about 1.1 µM and inactive = higher.

Some entries whose results are on file:
compound	GI50
N#CCCC1C(C#N)C2CC1C1C3C=CC(C3)C21 (stereo unspecified)	> 100 µM (inactive)
COc1ccc2c(c1)C1c3ccccc3CCN1CCC2 (stereo unspecified)	26.9 µM (inactive)

Q. For CCn1cc2c(=O)n3ncn(-c4ccc(Br)cc4)c3nc2n1 , what is its reported GI50?
A. > 100 µM (inactive)

Q. // lookup GI50 for c1ccc2c(c1)[n-]n1c3ccc4nonc4c3n[n+]21
A. > 100 µM (inactive)

Q. So what's the measured GI50 for this one? Oc1cc2c(cc1O)-c1[nH]ncc1CC2
A. 18.4 µM (inactive)
